Each entry below carries its reported log10 MFI.
Biological target: T1, human adenosine A2A receptor (A2aR) (human, UniProt P29274 1-412)
T1 construct: Assays used HEK293 cells stably overexpressing human A2aR (BPS Bioscience 79381), human A2aR-expressing CHO cells, or endogenous A2aR on human PBMC; also called human A2aR; hA2aR
T1 sequence (P29274 whole entry): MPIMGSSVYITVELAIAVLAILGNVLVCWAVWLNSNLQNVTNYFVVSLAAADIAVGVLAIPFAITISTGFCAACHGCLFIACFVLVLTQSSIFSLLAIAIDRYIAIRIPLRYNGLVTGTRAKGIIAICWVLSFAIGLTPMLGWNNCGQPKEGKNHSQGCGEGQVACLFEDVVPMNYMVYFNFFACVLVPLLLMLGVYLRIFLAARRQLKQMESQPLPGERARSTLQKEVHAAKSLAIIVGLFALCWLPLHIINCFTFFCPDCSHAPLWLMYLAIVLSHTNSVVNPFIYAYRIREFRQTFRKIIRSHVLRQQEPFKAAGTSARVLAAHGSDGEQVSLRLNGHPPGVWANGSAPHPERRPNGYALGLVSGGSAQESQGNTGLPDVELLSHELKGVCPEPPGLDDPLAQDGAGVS
Experiment: flow cytometry, HEK293-hA2aR cells, supernatant 1 ug/ml
endpoint-name: log10 MFI (log10 of the value in MFI)

>  <binder>
Hu3F6-H2/Hu3F6-L3 (antibody, human IgG1, V domains shown, Human IgG1 FES (L234F, L235E, P331S) and human Ig kappa constant domains; also called Hu3F6 VH2/VL3) VH: EVQLVQSGAEVKKPGASVKVSCKTSGFAFTSYWMNWVRQAPGQGLEWMGRIDPSDSEAHYHHKFWGRVTMTVDTSTSTVYMELSSLRSEDTAVYYCLRSLYGKGDYWGHGTTVTVSS VL: DVVMTQSPLSLPVTLGQPASISCRSSQSLVHRNGNTYLEWYQQRPGQSPRLLIYKVSNRFSGVPDRFSGSGSGTDFTLKISRVEAEDVGVYYCYQGSHVPLTFGGGTKVEIK

>  <log10 MFI>
3.26

$$$$
>  <binder>
Hu3F6-H6/Hu3F6-L4 (antibody, human IgG1, V domains shown, Human IgG1 FES (L234F, L235E, P331S) and human Ig kappa constant domains) VH: EVQLVQSGAEVKKPGESLRISCKASGFAFTSYWMNWVRQMPGKGLEWIGRIDPSDSEAHYHHKFWGHATLSVDKSSSTVYLQWSSLKASDTAMYYCLRSLYGKGDYWGHGTTVTVSS VL: DIVMTQTPLSLSVTPGQPASISCRSSQSLVHRNGNTYLEWYLQKPGQSPQLLIYKVSNRFSGVPDRFSGSGSGTDFTLKISRVEAEDVGVYYCYQGSHVPLTFGGGTKVEIK

>  <log10 MFI>
3.30

$$$$
>  <binder>
Hu3F6-H2/Hu3F6-L8 (antibody, human IgG1, V domains shown, Human IgG1 FES (L234F, L235E, P331S) and human Ig kappa constant domains; also called Hu3F6 VH2/VL8) VH: EVQLVQSGAEVKKPGASVKVSCKTSGFAFTSYWMNWVRQAPGQGLEWMGRIDPSDSEAHYHHKFWGRVTMTVDTSTSTVYMELSSLRSEDTAVYYCLRSLYGKGDYWGHGTTVTVSS VL: DVVMTQSPLSLPVTPGEPASISCRSSQSLVHRNGNTYLEWYLQKPGQSPQLLIYKVSNRFSGVPDRFSGSGSGTDFTLKISRVEAEDVGVYYCYQGSHVPLTFGGGTKVEIK

>  <log10 MFI>
3.23

$$$$
>  <binder>
Hu3F6-H1/Hu3F6-L1 (antibody, human IgG1, V domains shown, Human IgG1 FES (L234F, L235E, P331S) and human Ig kappa constant domains) VH: QVQLVQSGAEVKKPGASVKVSCKASGFAFTSYWMNWVRQAPGQGLEWMGRIDPSDSEAHYHHKFWGRVTMTRDTSTSTVYMELSSLRSEDTAVYYCLRSLYGKGDYWGHGTTVTVSS VL: DVVMTQSPLSLPVTLGQPASISCRSSQSLVHRNGNTYLEWFQQRPGQSPRRLIYKVSNRFSGVPDRFSGSGSGTDFTLKISRVEAEDVGVYYCYQGSHVPLTFGGGTKVEIK

>  <log10 MFI>
1.18

$$$$
>  <binder>
Hu3F6-H5/Hu3F6-L4 (antibody, human IgG1, V domains shown, Human IgG1 FES (L234F, L235E, P331S) and human Ig kappa constant domains; also called Hu3F6 VH5/VL4) VH: EVQLVQSGAEVKKPGASVKVSCKTSGFAFTSYWMNWVRQAPGQGLEWIGRIDPSDSEAHYAHKFWGRATLTVDKSSSTVYMELSSLRSEDTAVYYCLRSLYGKGDYWGHGTTVTVSS VL: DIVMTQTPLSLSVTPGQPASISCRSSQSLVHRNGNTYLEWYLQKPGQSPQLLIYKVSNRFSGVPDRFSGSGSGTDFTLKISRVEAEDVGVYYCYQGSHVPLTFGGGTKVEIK

>  <log10 MFI>
3.28

$$$$

Each recorded value in this set is attributed to patent US20250206828A1.
